Biological target: human RGS14 RGS-box (wild-type) (Homo sapiens, UniProt O43566)
Construct: human RGS14 RGS-box (aa 46–195 of UniProt O43566); host or cells: E. coli
Sequence (O43566 46-195): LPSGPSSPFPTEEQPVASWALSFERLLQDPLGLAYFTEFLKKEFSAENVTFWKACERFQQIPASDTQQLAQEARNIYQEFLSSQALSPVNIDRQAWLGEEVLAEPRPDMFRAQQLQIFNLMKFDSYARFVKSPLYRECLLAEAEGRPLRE
Assay: Transcreener GDP RGScreen fluorescence polarization assay of RGS14 RGS-box GAP activity on Gαi1(DM)
Assay type: biochemical
Details: wild-type RGS14 RGS-box GAP activity, Gαi1(DM), Transcreener GDP RGScreen; read-out: RGS14 pIC50 (converted)
Measurement type: IC50 (µM)

a: COc1ccc(OCc2nnc3n2N=C(c2cc(C)n(-c4nccs4)c2C)CS3)cc1
b: CSc1nnc2n1N=C(c1ccc(NC(=O)C(C)C)cc1)[C@H](C)S2
Which of the two items, a and b , has the greater recorded IC50? Please reply using the label of the selected record. a
